Each entry below lists one item and its recorded Progesterone receptor (PR) Competition factor value.
# system: progesterone receptor (Homo sapiens (Human))
# Sequence (P06401 whole entry, species assumed): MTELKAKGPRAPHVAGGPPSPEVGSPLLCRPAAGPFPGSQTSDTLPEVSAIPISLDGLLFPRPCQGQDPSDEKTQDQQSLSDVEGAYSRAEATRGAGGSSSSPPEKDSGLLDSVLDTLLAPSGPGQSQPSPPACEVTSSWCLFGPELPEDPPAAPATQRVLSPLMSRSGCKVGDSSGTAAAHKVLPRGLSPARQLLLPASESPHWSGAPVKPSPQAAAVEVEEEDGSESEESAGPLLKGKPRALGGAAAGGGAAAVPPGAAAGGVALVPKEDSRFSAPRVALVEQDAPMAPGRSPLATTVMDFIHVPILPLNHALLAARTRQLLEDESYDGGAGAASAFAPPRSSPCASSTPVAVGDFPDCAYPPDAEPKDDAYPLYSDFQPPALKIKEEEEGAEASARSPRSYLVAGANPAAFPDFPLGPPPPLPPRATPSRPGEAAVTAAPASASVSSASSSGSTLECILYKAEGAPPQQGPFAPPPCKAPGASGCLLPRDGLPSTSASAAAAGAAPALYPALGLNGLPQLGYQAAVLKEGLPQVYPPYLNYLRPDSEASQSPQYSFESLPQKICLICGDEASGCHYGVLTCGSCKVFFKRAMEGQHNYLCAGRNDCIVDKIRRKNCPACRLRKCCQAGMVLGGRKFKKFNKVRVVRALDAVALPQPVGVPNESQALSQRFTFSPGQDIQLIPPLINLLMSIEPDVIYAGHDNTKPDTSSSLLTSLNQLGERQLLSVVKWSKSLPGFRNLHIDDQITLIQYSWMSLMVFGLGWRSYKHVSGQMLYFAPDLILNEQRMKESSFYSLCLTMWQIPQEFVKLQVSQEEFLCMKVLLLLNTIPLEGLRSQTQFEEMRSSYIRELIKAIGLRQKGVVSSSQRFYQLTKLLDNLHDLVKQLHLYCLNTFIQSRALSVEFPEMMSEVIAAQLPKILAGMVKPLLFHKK
# method notes: Progesterone receptor binding test
# applied conditions: CF 1 = affinity of progesterone; CF > 1 lower affinity
Keep the answer to the number alone.

compound="C[C@]12CC[C@H]3[C@@H](CCC4=CC(=O)CC[C@@H]43)[C@@H]1CC[C@@]21C=CCO1 (stereo in doubt) [Example 1]" value=0.46
compound="C[C@]12CC[C@H]3[C@@H](CCC4=CC(=O)CC[C@@H]43)[C@@H]1CC1(CC1)[C@@]21C=CCO1 (stereo in doubt) [Example 6]" value=3.41
compound="C[C@@H]1CC2=CC(=O)CC[C@@H]2[C@H]2CC[C@@]3(C)[C@@H](CC[C@@]34C=CCO4)[C@@H]21 [Example 3]" value=2.41
compound="C=C[C@@H]1CC2=CC(=O)CC[C@@H]2[C@H]2CC[C@@]3(C)[C@@H](CC[C@@]34C=CCO4)[C@@H]21 [Example 5]" value=2.46

# context switch: different compound, same Progesterone receptor (PR) Competition factor
# Progesterone receptor (PR) Competition factor lookup, item CC[C@]12CC[C@H]3[C@@H](CCC4=CC(=O)CC[C@@H]43)[C@@H]1CC[C@@]21C=CCO1 (stereo in doubt) [Example 7]
0.19
